habituation to 1-s acoustic pulses overview
Test system: Danio rerio larvae (5 dpf)
assayInfo: habituation to 1-s acoustic pulses, difference vs DMSO (percentage points (treated minus DMSO)); higher = more of the behaviour than the DMSO vehicle control
reportedConditions: 10 µM; exposure time: 3 h pre-incubation + 3 h imaging
Counter-ions that a name gives are not always drawn.

compound	habituation to 1-s acoustic pulses
OCc1cc(C(O)CNCCCCCCOCCCCc2ccccc2)ccc1O (centres undefined) [Salmeterol xinafoate]	0.0601
CCc1nc(N)nc(N)c1-c1ccc(Cl)cc1 [Pyrimethamine]	5.04
COc1ccccc1Oc1c(NS(=O)(=O)c2ccc(C(C)(C)C)cc2)nc(-c2ncccn2)nc1OCCO [Bosentan]	4.23
Cc1nnc(C(C)C)n1C1C[C@H]2CC[C@@H](C1)N2CC[C@H](NC(=O)C1CCC(F)(F)CC1)c1ccccc1 (stereo in doubt) [Maraviroc]	2.48
O=C(O[C@@H]1C[C@@H]2C[C@H]3C[C@H](C1)N2CC3=O)c1c[nH]c2ccccc12 [Dolasetron mesylate]	2.06
CC(C)COCC(CN(Cc1ccccc1)c1ccccc1)N1CCCC1 (centres undefined) [Bepridil hydrochloride]	-6.51
C#CCN[C@@H]1CCc2ccccc21 [Rasagiline mesylate]	2.65
N[C@@H]1[C@H]2CN(c3nc4c(cc3F)c(=O)c(C(=O)O)cn4-c3ccc(F)cc3F)C[C@@H]12 [Trovafloxacin mesylate]	-3.6
Cc1ccc(O)c([C@H](CCN(C(C)C)C(C)C)c2ccccc2)c1 [Tolterodine L-tartrate]	-4.35
CCOc1nc2cccc(C(=O)O)c2n1Cc1ccc(-c2ccccc2-c2noc(=O)[nH]2)cc1 [Azilsartan]	6.99
CNC(=O)c1ccccc1Sc1ccc2c(/C=C/c3ccccn3)n[nH]c2c1 [Axitinib]	-2.02
C[C@]12CC[C@@H]3c4ccc(O)cc4C[C@@H](CCCCCCCCC[S+]([O-])CCCC(F)(F)C(F)(F)F)[C@H]3[C@@H]1CC[C@@H]2O (some centres undefined)	-2.82
Clc1ccc2nsnc2c1NC1=NCCN1 [Tizanidine hydrochloride]	-2.36
CN(C)CC/C=C1/c2ccccc2COc2ccc(CC(=O)O)cc21 [Olopatadine hydrochloride]	0.997
CC(C)c1ccc2oc3nc(N)c(C(=O)O)cc3c(=O)c2c1 [Amlexanox]	-1.39
CN(C)CCc1c[nH]c2ccc(C[C@H]3COC(=O)N3)cc12 [Zolmitriptan]	-1.85
Cc1ccc(-c2cc(C(F)(F)F)nn2-c2ccc(S(N)(=O)=O)cc2)cc1 [Celecoxib]	-9.42
CN1CCN(CCCN2c3ccccc3Sc3ccc(Cl)cc32)CC1 [Prochlorperazine dimaleate]	-7.34
COC(=O)C1=C(C)NC(C)=C(C(=O)OC(C)C)C1c1cccc2nonc12 (centres undefined) [Isradipine]	-13.5
OC(c1cc(C(F)(F)F)nc2c(C(F)(F)F)cccc12)C1CCCCN1 (centres undefined) [Mefloquine hydrochloride]	0.613
CC(=O)Oc1ccccc1C(=O)O [Aspirin]	-5.13
CCOc1ccccc1OCCN[C@H](C)Cc1ccc(OC)c(S(N)(=O)=O)c1 [Tamsulosin hydrochloride]	-0.195
CCCN(CCc1cccs1)[C@H]1CCc2c(O)cccc2C1 [Rotigotine hydrochloride]	-12.9
CC1CNc2c(cccc2S(=O)(=O)N[C@@H](CCCNC(=N)N)C(=O)N2CC[C@@H](C)C[C@@H]2C(=O)O)C1 (some centres undefined) [Argatroban]	-0.436
CCCCCCCCc1ccc(CCC(N)(CO)CO)cc1	3.87
CCc1c2c(nc3ccc(OC(=O)N4CCC(N5CCCCC5)CC4)cc13)-c1cc3c(c(=O)n1C2)COC(=O)[C@]3(O)CC	10.3
OCCN(CCO)c1nc(N2CCCCC2)c2nc(N(CCO)CCO)nc(N3CCCCC3)c2n1 [Dipyridamole]	0.822
CS(=O)(=O)CCNCc1ccc(-c2ccc3ncnc(Nc4ccc(OCc5cccc(F)c5)c(Cl)c4)c3c2)o1 [Lapatinib]	-1.43
COc1c(C)c2c(c(O)c1C/C=C(\C)CCC(=O)OCCN1CCOCC1)C(=O)OC2 [Mycophenolate mofetil]	0.172
CN[C@H]1CC[C@@H](c2ccc(Cl)c(Cl)c2)c2ccccc21 [Sertraline hydrochloride]	-2.9
OCCN1C[C@H](O)[C@@H](O)[C@H](O)[C@H]1CO [Miglitol]	0.997
Nc1ncn([C@H]2C[C@H](O)[C@@H](CO)O2)c(=O)n1 [Decitabine]	5.67
C=C1[C@H](CO)[C@@H](O)C[C@@H]1n1cnc2c(=O)[nH]c(N)nc21 [Entecavir]	3.17
CN(CCOc1ccc(NS(C)(=O)=O)cc1)CCc1ccc(NS(C)(=O)=O)cc1 [Dofetilide]	5.42

* * *

Test system: Danio rerio larvae (5 dpf)
assayInfo: startle response to 20-s acoustic pulses, difference vs DMSO (percentage points (treated minus DMSO)); higher = more of the behaviour than the DMSO vehicle control
reportedConditions: 10 µM; exposure time: 3 h pre-incubation + 3 h imaging
Counter-ions that a name gives are not always drawn.
Tag: Condition met if measured startle response to 20-s acoustic pulses is not below 1, Condition not met if it is.

molecule	qualitativeLabel
CN/C(=N\CCSCc1nc[nH]c1C)NC#N	Condition met
CN1CC2c3ccccc3Oc3ccc(Cl)cc3C2C1 (stereo unspecified) [Asenapine maleate]	Condition not met
CC[C@H]1OC(=O)[C@H](C)[C@@H](O[C@H]2C[C@@](C)(OC)[C@@H](O)[C@H](C)O2)[C@H](C)[C@@H](O[C@@H]2O[C@H](C)C[C@H](N(C)C)[C@H]2O)[C@](C)(O)C[C@@H](C)CN(C)[C@H](C)[C@@H](O)[C@]1(C)O	Condition met
CC1(C)O[C@@H]2[C@@H](CO[C@@]3(COS(N)(=O)=O)OC(C)(C)O[C@@H]23)O1 [Topiramate]	Condition not met
N#Cc1ccc2[nH]cc(CCCCN3CCN(c4ccc5oc(C(N)=O)cc5c4)CC3)c2c1 [Vilazodone hydrochloride]	Condition not met
O=C1CCc2cc(OCCCCc3nnnn3C3CCCCC3)ccc2N1	Condition met
CCCc1nc2c(C)cc(-c3nc4ccccc4n3C)cc2n1Cc1ccc(-c2ccccc2C(=O)O)cc1	Condition met
C[C@H](Cc1cc2c(c(C(N)=O)c1)N(CCCO)CC2)NCCOc1ccccc1OCC(F)(F)F	Condition met
CCCCCOC(=O)Nc1nc(=O)n([C@@H]2O[C@H](C)[C@@H](O)[C@H]2O)cc1F	Condition met
CN1CCN2c3ncccc3Cc3ccccc3C2C1 (stereo unspecified)	Condition not met
Nc1nc(F)nc2c1ncn2[C@@H]1O[C@H](CO)[C@@H](O)[C@@H]1O	Condition met
CC(=O)O[C@]1(C(C)=O)CC[C@H]2[C@@H]3C=C(C)C4=CC(=O)CC[C@]4(C)[C@H]3CC[C@@]21C [Megestrol Acetate]	Condition not met
Clc1ccccc1C(c1ccccc1)(c1ccccc1)n1ccnc1	Condition met
Cc1nc(-c2ccc(OCC(C)C)c(C#N)c2)sc1C(=O)O	Condition met
CN1CCN(CCCN2c3ccccc3Sc3ccc(Cl)cc32)CC1 [Prochlorperazine dimaleate]	Condition not met

* * *

Tested on: Danio rerio larvae (5 dpf)
assayInfo: activity during period 15 (no stimuli), difference vs DMSO (percentage points (treated minus DMSO)); higher = more of the behaviour than the DMSO vehicle control
reportedConditions: 10 µM; exposure time: 3 h pre-incubation + 3 h imaging
Counter-ions that a name gives are not always drawn.

molecule	activity during period 15
CC(C)c1nc(N(C)S(C)(=O)=O)nc(-c2ccc(F)cc2)c1/C=C/[C@@H](O)C[C@@H](O)CC(=O)O	15.5
Nc1nc2[nH]cc(CCc3ccc(C(=O)N[C@@H](CCC(=O)O)C(=O)O)cc3)c2c(=O)[nH]1	1.39
O=C1CCc2cc(OCCCCc3nnnn3C3CCCCC3)ccc2N1	3.03
CN(C)CC/C=C1/c2ccccc2COc2ccc(CC(=O)O)cc21 [Olopatadine hydrochloride]	-6.62

* * *

Tested on: Danio rerio larvae (5 dpf)
assayInfo: excitability to 1-s acoustic pulses, difference vs DMSO (percentage points (treated minus DMSO)); higher = more of the behaviour than the DMSO vehicle control
reportedConditions: 10 µM; exposure time: 3 h pre-incubation + 3 h imaging
Structures can show the parent of a compound that is named as a salt.
observedProperty: excitability to 1-s acoustic pulses

molecule	experimentalTarget	observedProperty	experimentalValue
CCCCCCCCc1ccc(CCC(N)(CO)CO)cc1	Danio rerio larvae (5 dpf)	excitability to 1-s acoustic pulses	14.4
O=C(O[C@@H]1C[C@@H]2C[C@H]3C[C@H](C1)N2CC3=O)c1c[nH]c2ccccc12 [Dolasetron mesylate]	Danio rerio larvae (5 dpf)	excitability to 1-s acoustic pulses	9.61
CCc1c2c(nc3ccc(OC(=O)N4CCC(N5CCCCC5)CC4)cc13)-c1cc3c(c(=O)n1C2)COC(=O)[C@]3(O)CC	Danio rerio larvae (5 dpf)	excitability to 1-s acoustic pulses	6.46
CC#C[C@]1(O)CC[C@H]2[C@@H]3CCC4=CC(=O)CCC4=C3[C@@H](c3ccc(N(C)C)cc3)C[C@@]21C [Mifepristone]	Danio rerio larvae (5 dpf)	excitability to 1-s acoustic pulses	5.32
CC(C)(C#N)c1cc(Cn2cncn2)cc(C(C)(C)C#N)c1 [Anastrozole]	Danio rerio larvae (5 dpf)	excitability to 1-s acoustic pulses	3.65
CC(C)COCC(CN(Cc1ccccc1)c1ccccc1)N1CCCC1 (stereo not drawn) [Bepridil hydrochloride]	Danio rerio larvae (5 dpf)	excitability to 1-s acoustic pulses	15
CC(C)OC(=O)C(C)(C)Oc1ccc(C(=O)c2ccc(Cl)cc2)cc1 [Fenofibrate]	Danio rerio larvae (5 dpf)	excitability to 1-s acoustic pulses	4.84
CCOC(=O)N1CCC(=C2c3ccc(Cl)cc3CCc3cccnc32)CC1 [Loratidine]	Danio rerio larvae (5 dpf)	excitability to 1-s acoustic pulses	-6.95
